# TARGET: UniProt P33535
# Sequence (P33535 whole entry): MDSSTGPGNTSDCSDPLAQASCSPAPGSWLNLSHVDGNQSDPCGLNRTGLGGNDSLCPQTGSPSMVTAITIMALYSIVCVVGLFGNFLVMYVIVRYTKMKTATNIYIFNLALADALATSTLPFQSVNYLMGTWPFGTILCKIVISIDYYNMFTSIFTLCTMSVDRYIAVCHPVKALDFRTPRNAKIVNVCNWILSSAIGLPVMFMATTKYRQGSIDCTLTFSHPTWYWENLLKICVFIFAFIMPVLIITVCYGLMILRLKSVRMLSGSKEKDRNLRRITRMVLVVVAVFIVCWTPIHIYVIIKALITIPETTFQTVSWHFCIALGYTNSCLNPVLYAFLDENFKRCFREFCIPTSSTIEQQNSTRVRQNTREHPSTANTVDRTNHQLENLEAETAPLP
# EXPERIMENT: The compound was tested for binding affinity towards rat Opioid receptor mu 1 by displacing [3H]DAMGO.
pIC50: −log10 of the molar value.
The reader will find reported pIC50 values listed item by item below.
READOUT: pIC50

[[record]]
smiles_string = "C[C@@H](NC(=O)[C@@H](N)Cc1ccc(O)cc1)C(=O)N[C@@H](Cc1ccccc1)c1nc(C(=O)N[C@@H](Cc2ccc(O)cc2)C(=O)N2CCC[C@H]2C(=O)N[C@@H](CO)C(N)=O)no1"
readout = "pIC50"
measured_result = 7.77

[[record]]
smiles_string = "C[C@@H](NC(=O)[C@@H](N)Cc1ccc(O)cc1)C(=O)N[C@@H](Cc1ccccc1)c1nnc(C(=O)N[C@@H](Cc2ccc(O)cc2)C(=O)N2CCC[C@H]2C(=O)N[C@@H](CO)C(N)=O)o1"
readout = "pIC50"
measured_result = 7.70

[[record]]
smiles_string = "C[C@@H](NC(=O)[C@@H](N)Cc1ccc(O)cc1)C(=O)N[C@@H](Cc1ccccc1)c1n[nH]c(CC(=O)N[C@@H](Cc2ccc(O)cc2)C(=O)N2CCC[C@H]2C(=O)N[C@@H](CO)C(N)=O)n1"
readout = "pIC50"
measured_result = 7.68

[[record]]
smiles_string = "C[C@@H](NC(=O)[C@@H](N)Cc1ccc(O)cc1)C(=O)N[C@@H](Cc1ccccc1)c1nnc(C(=O)N[C@@H](Cc2ccc(O)cc2)C(=O)N2CCC[C@H]2C(=O)N[C@@H](CO)C(N)=O)[nH]1"
readout = "pIC50"
measured_result = 6.31

[[record]]
smiles_string = "C[C@@H](NC(=O)[C@@H](N)Cc1ccc(O)cc1)C(=O)N[C@@H](Cc1ccccc1)c1nnc(CC(=O)N[C@@H](Cc2ccc(O)cc2)C(=O)N2CCC[C@H]2C(=O)N[C@@H](CO)C(N)=O)o1"
readout = "pIC50"
measured_result = 7.51

[[record]]
smiles_string = "C[C@@H](NC(=O)[C@@H](N)Cc1ccc(O)cc1)C(=O)N[C@@H](Cc1ccccc1)c1nc(CC(=O)N[C@@H](Cc2ccc(O)cc2)C(=O)N2CCC[C@H]2C(=O)N[C@@H](CO)C(N)=O)no1"
readout = "pIC50"
measured_result = 7.92


----------
# TARGET: Substance-P receptor (Rattus norvegicus, UniProt P14600)
# Sequence (P14600 whole entry): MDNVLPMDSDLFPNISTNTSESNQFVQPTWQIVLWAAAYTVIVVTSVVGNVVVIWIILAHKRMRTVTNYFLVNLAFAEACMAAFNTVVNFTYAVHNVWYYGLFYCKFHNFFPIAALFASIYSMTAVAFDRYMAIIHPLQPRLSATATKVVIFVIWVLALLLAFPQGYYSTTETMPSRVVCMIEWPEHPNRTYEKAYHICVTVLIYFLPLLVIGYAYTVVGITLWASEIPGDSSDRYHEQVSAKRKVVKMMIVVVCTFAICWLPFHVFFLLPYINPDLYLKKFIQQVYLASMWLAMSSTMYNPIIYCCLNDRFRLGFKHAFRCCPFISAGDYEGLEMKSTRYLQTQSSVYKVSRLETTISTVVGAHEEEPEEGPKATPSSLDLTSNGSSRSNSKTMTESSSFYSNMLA
Numbered stars: 1 amine (or outer) side, 2 acyl side, 3 side chain; on linkers, the order of the positions; unused ones are H or OH. Square brackets hold non-standard residues; d marks the D form. Peptide text beside a SMILES is read from it. X9 = O=C(Cc1nnc([C@H](Cc2ccccc2)N[*:1])[nH]1)[*:2]
The reader will find reported IC50 values listed item by item below.
READOUT: IC50

[[record]]
molecule = "C[C@@H](NC(=O)[C@@H](N)Cc1ccc(O)cc1)C(=O)NCC(=O)N(C)[C@@H](Cc1ccccc1)C(=O)NCCO"
measured_result = "> 1 µM"

[[record]]
molecule = "C[C@@H](NC(=O)[C@@H](N)Cc1ccc(O)cc1)C(=O)N[C@@H](Cc1ccccc1)c1nnc(CC(=O)N[C@@H](Cc2ccc(O)cc2)C(=O)N2CCC[C@H]2C(=O)N[C@@H](CO)C(N)=O)o1"
measured_result = "> 1 µM"

[[record]]
molecule = "CSCC[C@H](NC(=O)[C@H](CC(C)C)NC(=O)Cc1nnc([C@H](Cc2ccccc2)NC(=O)[C@H](Cc2ccccc2)NC(=O)[C@H](CCC(N)=O)NC(=O)[C@H](CCC(N)=O)NC(=O)[C@@H]2CCCN2C(=O)[C@H](CCCCN)NC(=O)[C@@H]2CCCN2C(=O)[C@@H](N)CCCNC(=N)N)[nH]1)C(N)=O (H-RPKPQQF[X9]LM-NH2)"
measured_result = "> 1 µM"

